Documented % S across a set of compounds
- System: Staphylococcus haemolyticus
- assay_overview: MIC, CLSI broth microdilution, clinical isolates
- Type: cell-based
- applied_conditions: Staphylococcus haemolyticus (N = 101)
Your answer is read as %, so omit the unit and give the number.

>  <compound>
COc1c(N2CCNC(C)C2)c(F)cc2c(=O)c(C(=O)O)cn(C3CC3)c12 (centres unmarked)

>  <result_type>
% S

>  <value_observed>
40.6

$$$$
>  <compound>
C[C@H]1COc2c(N3CCN(C)CC3)c(F)cc3c(=O)c(C(=O)O)cn1c23

>  <result_type>
% S

>  <value_observed>
39.6

$$$$
>  <compound>
NC[C@H]1O[C@H](O[C@H]2[C@H](O)[C@@H](O[C@H]3O[C@H](CO)[C@@H](O)[C@H](N)[C@H]3O)[C@H](N)C[C@@H]2N)[C@H](N)C[C@@H]1O

>  <result_type>
% S

>  <value_observed>
64.4

$$$$
>  <compound>
Cc1onc(-c2ccccc2)c1C(=O)N[C@@H]1C(=O)N2[C@@H]1SC(C)(C)[C@@H]2C(=O)O

>  <result_type>
% S

>  <value_observed>
31.7

$$$$

Task: For the compound shown here, "CC[C@H]1OC(=O)[C@H](C)[C@@H](O[C@H]2C[C@@](C)(OC)[C@@H](O)[C@H](C)O2)[C@H](C)[C@@H](O[C@@H]2O[C@H](C)C[C@H](N(C)C)[C@H]2O)[C@](C)(O)C[C@@H](C)CN(C)[C@H](C)[C@@H](O)[C@]1(C)O" , give the reported % S.
Result: 26.7
